molecular target: human PAH with the R408W mutation (Homo sapiens, UniProt P00439, R408W); construct: expressed in transfected cells; experiment: Cell Based Phenylalanine Flux Assay; conditions: A375 cells expressing human R408W PAH; 24 hrs compound incubation; 13C-Tyrosine by LC-MS; average where tested multiple times; read-out: AC50
Parameter measured: AC50

O=C(c1cnc(C2CC2)s1)N1CCc2[nH]cnc2[C@H]1c1nc2ccccc2s1 [Example 1179]
< 500 nM

Which AC50 value is on record for Cn1nc(C(F)(F)F)cc1C(=O)N1CCc2[nH]cnc2[C@H]1c1nc2c(F)cccc2s1 [Example 1787] ?
1000 to 5000 nM

Which AC50 value is on record for O=C(c1nnc(-c2c[nH]nc2C(F)(F)F)o1)N1CCc2[nH]cnc2[C@@H]1c1nc2ccccc2s1 [Example 1966] ?
1000 to 5000 nM

Which AC50 value is on record for O=C(c1nnc(C2CC2)o1)N1CCc2[nH]cnc2[C@H]1c1nc2c(F)cccc2s1 [Example 1443] ?
< 500 nM

* * *

molecular target: human PAH with the R408W mutation (Homo sapiens, UniProt P00439, R408W); construct: expressed in transfected cells; assay: Cell Based Phenylalanine Flux Assay; conditions: A375 cells expressing human R408W PAH; 24 hrs with compound; 13C-Tyrosine by LC-MS; average where tested multiple times; read-out: AC50
Parameter measured: AC50

O=C(c1cscn1)N1CCc2[nH]cnc2[C@H]1c1nc2ccccc2[nH]1
1 to 5 µM
O=C(c1ncc(Cl)s1)N1CCc2[nH]cnc2C1c1nc2ccc(F)cc2s1 (stereo not drawn)
1 to 5 µM

Which AC50 value is on record for CC(C)(C)CCC(=O)N1CCc2[nH]cnc2C1c1nc2cc(F)ccc2s1 (stereo not drawn) ?
1 to 5 µM

Which AC50 value is on record for O=C(c1nc2ccccc2s1)N1CCc2nc[nH]c2C1c1nc2ccc(Br)cc2s1 (stereo not drawn) ?
> 5 µM

Which AC50 value is on record for O=C(c1n[nH]c2ccccc12)N1CCc2[nH]cnc2C1c1nc2ccc(F)cc2s1 (stereo not drawn) ?
1 to 5 µM

Which AC50 value is on record for Cc1nc(-c2ccccn2)oc1C(=O)N1CC2(CC2)c2[nH]cnc2C1c1nc2ccccc2s1 (stereo not drawn) ?
> 5 µM

* * *

molecular target: human PAH with the R408W mutation (Homo sapiens, UniProt P00439, R408W); construct: expressed in transfected cells; assay: Cell Based Phenylalanine Flux Assay; conditions: A375 cells expressing human R408W PAH; 24 hrs compound incubation; 13C-Tyrosine by LC-MS; average where tested multiple times; read-out: AC50
Parameter measured: AC50

See these solved cases before continuing.
O=C(c1oc(NC2CC2)nc1C(F)(F)F)N1CCc2[nH]cnc2[C@@H]1c1nc2ccccc2s1
< 500 nM
CC(C)(C)c1ncc(C(=O)N2CCc3[nH]cnc3[C@@H]2c2nc3ccccc3s2)o1
500 to 1000 nM

Which AC50 value is on record for "O=C(c1nnc(-c2cc(C(F)(F)F)ccn2)o1)N1CCc2[nH]cnc2[C@@H]1c1nc2ccccc2s1" ?
1000 to 5000 nM

Which AC50 value is on record for "CCn1ncnc1C(=O)N1CCc2[nH]cnc2[C@@H]1c1nc2c(F)cccc2s1" ?
1000 to 5000 nM

Which AC50 value is on record for CC(O)c1nc(Cl)c(C(=O)N2CCc3[nH]cnc3[C@@H]2c2nc3c(F)cccc3s2)o1 (single isomer, unassigned) [Example 2082] ?
1000 to 5000 nM

Which AC50 value is on record for "C[C@H]1CN(C(=O)c2nnc(-c3ccc(F)cn3)o2)[C@H](c2nc3ccccc3s2)c2nc[nH]c21" ?
1000 to 5000 nM

Which AC50 value is on record for "Cn1ncc(-c2ncc(C(=O)N3CCc4[nH]cnc4[C@H]3c3nc4ccccc4s3)s2)c1C(F)(F)F" ?
< 500 nM

Which AC50 value is on record for "O=C(CCc1ncc(Cl)s1)N1CCc2[nH]cnc2[C@H]1c1nc2ccccc2[nH]1" ?
1000 to 5000 nM

* * *

molecular target: human PAH with the R408W mutation (Homo sapiens, UniProt P00439, R408W); construct: expressed in transfected cells; assay: Cell Based Phenylalanine Flux Assay; conditions: A375 cells expressing human R408W PAH; 24 hrs compound incubation; 13C-Tyrosine by LC-MS; average where tested multiple times; read-out: AC50
Reported AC50 values for the following molecules.

Cn1cc(-c2ncc(C(=O)N3CCc4[nH]cnc4[C@H]3c3nc4ccccc4s3)s2)c(C(F)(F)F)n1 [Example 1389]
< 500 nM
CC(C)(O)c1nc(Cl)c(C(=O)N2CCc3[nH]cnc3[C@@H]2c2nc3c(F)cccc3s2)s1 [Example 2088]
1000 to 5000 nM

Item Cc1ccn2ncc(C(=O)N3CCc4[nH]cnc4[C@H]3c3nc4ccccc4s3)c2c1 [Example 1125] with human PAH with the R408W mutation (Homo sapiens, UniProt P00439, R408W) - AC50?
1000 to 5000 nM

Item Cn1ncc(-c2ncc(C(=O)N3CCc4[nH]cnc4[C@@H]3c3nc4ccccc4s3)s2)c1C(F)(F)F [Example 1408] with human PAH with the R408W mutation (Homo sapiens, UniProt P00439, R408W) - AC50?
1000 to 5000 nM

* * *

target: human PAH with the R408W mutation (Homo sapiens, UniProt P00439, R408W); construct: expressed in transfected cells; assay: Cell Based Phenylalanine Flux Assay; conditions: A375 cells expressing human R408W PAH; 24 hrs compound incubation; 13C-Tyrosine by LC-MS; average where tested multiple times; read-out: AC50
Reported AC50 values for the following molecules.

Item "C[C@@H]1CN(C(=O)c2nnc(-c3cnn(C)c3)o2)[C@H](c2nc3ccccc3s2)c2nc[nH]c21" with human PAH with the R408W mutation (Homo sapiens, UniProt P00439, R408W) - AC50?
500 to 1000 nM

* * *

Reported AC50 values for the following compounds.
Biological target: human PAH with the R408W mutation (Homo sapiens, UniProt P00439, R408W)
Construct: expressed in transfected cells
Sequence (P00439 1-452 R408W): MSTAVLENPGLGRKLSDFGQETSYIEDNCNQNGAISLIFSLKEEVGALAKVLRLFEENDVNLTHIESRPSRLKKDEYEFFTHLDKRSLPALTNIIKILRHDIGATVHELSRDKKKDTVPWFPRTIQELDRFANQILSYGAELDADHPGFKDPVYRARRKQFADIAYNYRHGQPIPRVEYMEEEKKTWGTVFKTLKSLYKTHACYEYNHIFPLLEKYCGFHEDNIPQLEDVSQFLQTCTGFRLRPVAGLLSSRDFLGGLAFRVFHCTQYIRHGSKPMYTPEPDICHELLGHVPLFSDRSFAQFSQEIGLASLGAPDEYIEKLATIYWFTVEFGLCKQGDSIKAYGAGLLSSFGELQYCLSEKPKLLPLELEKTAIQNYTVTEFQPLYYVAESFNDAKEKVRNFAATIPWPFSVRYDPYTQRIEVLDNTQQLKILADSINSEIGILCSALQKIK
Experiment: Cell Based Phenylalanine Flux Assay
Settings: A375 cells expressing human R408W PAH; 24 hrs compound incubation; 13C-Tyrosine by LC-MS; average where tested multiple times; read-out: AC50

Item "Cc1nc(C(C)(C)F)oc1C(=O)N1CCc2[nH]cnc2[C@@H]1c1nc2ccccc2s1" with human PAH with the R408W mutation (Homo sapiens, UniProt P00439, R408W) - AC50?
1 to 5 µM

Item "Cn1nc(C(F)F)cc1C(=O)N1CCc2[nH]cnc2[C@@H]1c1nc2c(F)cccc2s1" with human PAH with the R408W mutation (Homo sapiens, UniProt P00439, R408W) - AC50?
1 to 5 µM

Item "CNC(C)(C)c1nc(C(F)F)c(C(=O)N2CCc3[nH]cnc3[C@H]2c2nc3c(F)cccc3s2)o1" with human PAH with the R408W mutation (Homo sapiens, UniProt P00439, R408W) - AC50?
< 0.5 µM

Item "O=C(c1cn(CC(F)(F)F)nc1C(F)F)N1CCc2[nH]cnc2[C@@H]1c1nc2c(F)cccc2s1" with human PAH with the R408W mutation (Homo sapiens, UniProt P00439, R408W) - AC50?
1 to 5 µM

* * *

molecular target: human PAH with the R408W mutation (Homo sapiens, UniProt P00439, R408W); construct: expressed in transfected cells; assay: Cell Based Phenylalanine Flux Assay; details: A375 cells expressing human R408W PAH; 24 hrs compound incubation; 13C-Tyrosine by LC-MS; average where tested multiple times; read-out: AC50
Parameter measured: AC50

See these solved cases before continuing.
c1ccc2sc([C@H]3c4nc[nH]c4CCN3CCC3CC3)nc2c1
1000 to 5000 nM
Cc1nc(-c2cnn(C(C)C)c2)oc1C(=O)N1CCc2[nH]cnc2[C@H]1c1nc2ccccc2s1
< 500 nM
CC(C)(C)CCC(=O)N1CCc2[nH]cnc2[C@H]1c1nc2ccc(Br)cc2[nH]1
500 to 1000 nM
Nc1cc(C(=O)N2CCc3[nH]cnc3[C@@H]2c2nc3c(F)cccc3s2)n(C(F)F)n1
> 5000 nM
O=C(c1ncc(-c2ccccc2)s1)N1CCc2[nH]cnc2[C@@H]1c1nc2ccccc2s1
> 5000 nM

Now turn to the next molecule.
Which AC50 value is on record for "O=C(c1oc(-c2ccccn2)nc1C(F)(F)F)N1CCc2[nH]cnc2[C@H]1c1nc2c(F)cccc2s1" ?
< 500 nM
